# Tested on: DTX3L; also: reference of the scale not given here
# Procedure text: pooled miR-30 sensor sort-seq; sequence = guide strand
# Condition label: shRNA
Measured attribute: sensor-assay potency score (higher = more potent)

# Ordered residues, Quantitative result
rows = [
    ("TAGCTCTCCAGCTTCCTTCGTA", 0.0161),
    ("TTCGATCTCTGATATCTCCTGT", 0.612),
    ("TAGAACATACTGCTTCGCCTTT", -0.506),
    ("TTCCAGGGTATCTCTTTCCTGG", -0.87),
    ("TTGAGGTCTCGTGTTCTTCTTT", -0.195),
    ("TTCGTCAACAAGTATTTGGTGC", 0.16),
    ("TTTTTCAACACTCTCTCCTTAG", -0.54),
    ("TTTGTGGTGAATATCATTCCAA", -0.425),
]

Taken from the OligoGym collection.
